test: Time course of conversion to indirubin in FaSSGF at 37° C.; type: physicochemical; conditions: FaSSGF (Example 4; table title prints FaSSIF) 37° C., 24 h
measured metric: starting material (prodrug compound) (%)

{"columns": ["molecule", "starting material (prodrug compound) [%]"],
 "data": [
  ["O=C1/C(=C2/C(=O)N(COS(=O)(=O)O)c3ccccc32)Nc2ccccc21 [drawing 277]", 26]
]}

[I] CN1CCN(CN2C(=O)/C(=C3\Nc4ccccc4C3=O)c3ccccc32)CC1 [drawing 273]
[II] O=C1/C(=C2/C(=O)N(CN3CCCC3)c3ccccc32)Nc2ccccc21 [drawing 270]
Returns: the label, I or II , whose recorded starting material (prodrug compound) is the lower number. Please respond with the label that marks your chosen entry. II

###

assay: Time course of conversion to indirubin in FaSSGF at 37° C.; format: physicochemical; conditions: FaSSGF (Example 4; table title prints FaSSIF) 37° C., 2 h
measured metric: indirubin (%)

{"columns": ["compound", "endpoint unit", "indirubin"],
 "data": [
  ["O=C1/C(=C2/C(=O)N(CO)c3ccccc32)Nc2ccccc21 [drawing 274]", "%", 18]
]}

[P] O=C1/C(=C2/C(=O)N(C(=O)NC3CCOCC3)c3ccccc32)Nc2ccccc21 [drawing 278]
[Q] O=C1/C(=C2/C(=O)N(CN3CCCC3)c3ccccc32)Nc2ccccc21 [drawing 270]
Could you kindly indicate whether P or Q has the higher indirubin value? Please respond with the label that marks your chosen entry. Q

###

experiment: Time course of conversion to indirubin in FaSSGF at 37° C.;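 also: compound incubated in fasted state simulated gastric fluid, species in samples quantified by UPLC-MS with UV (210–400 nm) and ELS detection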; type: physicochemical; conditions: FaSSGF (Example 4; table title prints FaSSIF) 37° C., 24 h
measured metric: indirubin methylene alcohol (%)

{"columns": ["compound", "indirubin methylene alcohol / %"],
 "data": [
  ["CC(=O)N1CCN(CN2C(=O)/C(=C3\\Nc4ccccc4C3=O)c3ccccc32)CC1 [drawing 281]", 0],
  ["O=C1/C(=C2/C(=O)N(C(=O)NC3CCOCC3)c3ccccc32)Nc2ccccc21 [drawing 278]", 0],
  ["CNCCNC(=O)N1C(=O)/C(=C2\\Nc3ccccc3C2=O)c2ccccc21.Cl [drawing 279]", 0]
]}

###

assay: Time course of conversion to indirubin in FaSSIF at 37° C.;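 also: test compound, about 1-3 mg in 5 mL FaSSIF, sampled and analysed by UPLC-MS with PDA UV (210-400 nm), QDa mass and evaporative light scattering detection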; type: physicochemical; conditions: FaSSIF 37° C., 1 h
measured metric: indirubin (%)

{"columns": ["compound", "indirubin (%)"],
 "data": [
  ["CNCCNC(=O)N1C(=O)/C(=C2\\Nc3ccccc3C2=O)c2ccccc21.Cl [drawing 264]", 0]
]}

[A] CN(C)CCN(C)CN1C(=O)/C(=C2\Nc3ccccc3C2=O)c2ccccc21 [drawing 253]
[B] CN(C)C1CCN(CN2C(=O)/C(=C3\Nc4ccccc4C3=O)c3ccccc32)CC1 [drawing 256]
Returns: the label, A or B , whose recorded indirubin is the lower number. Please respond with the label that marks your chosen entry. B
